# inhibition per entry
subject-of-test: Pantothenate synthetase (Mycobacterium tuberculosis (strain ATCC 25618 / H37Rv)) (UniProt P9WIL5)
Sequence (P9WIL5 whole entry, looked up): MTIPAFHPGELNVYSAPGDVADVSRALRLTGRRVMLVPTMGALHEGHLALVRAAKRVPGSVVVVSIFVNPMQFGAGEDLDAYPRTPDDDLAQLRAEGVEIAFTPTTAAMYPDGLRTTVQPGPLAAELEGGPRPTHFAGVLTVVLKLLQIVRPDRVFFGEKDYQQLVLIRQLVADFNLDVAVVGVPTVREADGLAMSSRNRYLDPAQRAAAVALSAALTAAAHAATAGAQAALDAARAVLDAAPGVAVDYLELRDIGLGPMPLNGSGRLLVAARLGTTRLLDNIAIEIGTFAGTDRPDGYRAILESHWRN
assay-summary: Coupled enzyme confirmation of inhibitors against recombinant Mtb PanC (AID 375);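 note: 0% = full reaction with vehicle and 100% = no enzyme background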
assay-context: coupled enzyme assay; at 10 µM, hits give high values
The response must be a number in % with no trailing unit.

Worked set:
- compound: "CCOC(=O)N1CCN(C(=O)COc2ccc(S(=O)(=O)NC3CCCCC3)cc2C)CC1"
  inhibition (%): 2
- compound: "CC(C)(C)c1ccc(O)c(N)c1"
  inhibition (%): 2
- compound: "CN(C)C(CNc1nnnn1-c1ccccc1)c1ccco1 (stereo unspecified)"
  inhibition (%): 2
- compound: "CSc1nsc(SCC(=O)N2CCc3ccccc32)n1"
  inhibition (%): 8
- compound: "O=C(CSc1nnnn1-c1ccccc1)c1cc2ccccc2oc1=O"
  inhibition (%): 0

# input for lookup
Q: Which inhibition is reported for this compound? CC1(C)CNC(=O)CC(C)(C)N1O
Ans: 0

====

subject-of-test: Pantothenate synthetase (Mycobacterium tuberculosis (strain ATCC 25618 / H37Rv)) (UniProt P9WIL5)
assay-summary: Coupled enzyme confirmation of inhibitors against recombinant Mtb PanC (AID 375);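 note: 0% = full reaction with vehicle and 100% = no enzyme background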
assay-context: coupled enzyme assay; at 10 µM, hits give high values
Listed here: items and their measured inhibition.
The response must be a number in % with no trailing unit.

Here is how some compounds turned out for inhibition.
- compound: "O=C(Cc1ccc(S(=O)(=O)N2CCCC2)s1)Nc1nc2c(s1)CCCC2"
  display-unit: "%"
  inhibition: 1
- compound: "C=CCn1c(SCC(=O)NC2CCCCC2)nnc1-c1sc(N)nc1C"
  display-unit: "%"
  inhibition: 7
- compound: "CCS(=O)(=O)N1CCCC(C(=O)NCc2cccc(OC)c2)C1 (stereo unspecified)"
  display-unit: "%"
  inhibition: 1
- compound: "COc1ccc(Cn2nnnc2C(c2ccncc2)N2CCOCC2)cc1 (stereo unspecified)"
  display-unit: "%"
  inhibition: 0
- compound: "C=CCSc1nnc(NC(=O)c2ccc(S(=O)(=O)NCC3CCCO3)cc2)s1 (stereo unspecified)"
  display-unit: "%"
  inhibition: 1

Q: Any idea what its inhibition is? The compound is CCCNS(=O)(=O)c1ccc(OCC(=O)NCc2ccco2)cc1
Ans: 2

Q: Entry to check: COC(=NC1CCCC1)C(O)c1c[nH]c2ccccc12 (stereo unspecified)
Ans: 0

Q: Next compound up: CC1/C(=N/O)C(CN(C)C)C2CC1C2(C)C (stereo unspecified)
Ans: 0

Q: # repeat for Cn1c(SCC(=O)N2CCOCC2)nnc1-c1cnccn1
Ans: 0

Q: Thanks! And CCC(=O)Nc1ccc(NC(=O)c2cccc(OC)c2)nc1 ?
Ans: 0

Q: Check O=C(NC1CCCCCC1)C1c2ccccc2C(=O)N1Cc1cccnc1 (stereo unspecified) too.
Ans: 3

====

subject-of-test: Pantothenate synthetase (Mycobacterium tuberculosis (strain ATCC 25618 / H37Rv)) (UniProt P9WIL5)
assay-summary: Coupled enzyme confirmation of inhibitors against recombinant Mtb PanC (AID 375);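 note: 0% = full reaction with vehicle and 100% = no enzyme background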
assay-context: coupled enzyme assay; at 10 µM, hits give high values
inhibition values by entry
Express your answer in %, writing the number without its unit.

Use these answered entries as a reference point.
- compound: "CCCCn1c(O)c(C(CC)=Nc2cccc(C(=O)O)c2)c(=O)[nH]c1=O"
  inhibition [%]: 0
- compound: "Cn1c(=O)cc(OCC(=O)N2CCN(C3CCCCC3)CC2)c2ccccc21"
  inhibition [%]: 0
- compound: "CCCn1c(N)c(C(=O)CSc2nnc(Cc3ccccc3)o2)c(=O)n(C)c1=O"
  inhibition [%]: 2
- compound: "CCOC(=O)c1cc2c(=O)n3ccccc3nc2n(CC2CCCO2)c1=NC(C)=O (stereo not given)"
  inhibition [%]: 4

Turning now to a further compound:
Q: # input compound: Cc1cc(C)c2c(=O)n(CC(=O)NCCCN3CCOCC3)sc2n1 ; wanted: its inhibition
Ans: 1

====

Recorded inhibition values for a group of compounds are listed next.
subject-of-test: Pantothenate synthetase (Mycobacterium tuberculosis (strain ATCC 25618 / H37Rv)) (UniProt P9WIL5)
assay-summary: Coupled enzyme confirmation of inhibitors against recombinant Mtb PanC (AID 375);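 note: 0% = full reaction with vehicle and 100% = no enzyme background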
assay-context: coupled enzyme assay; at 10 µM, hits give high values
Kindly provide the numeric value in % only, without the unit symbol.

- compound: "COc1ccc(C)cc1NC(=O)CCC(=O)Nc1ccc2nc(N3CCN(C)CC3)cc(C)c2c1"
  inhibition / %: 0
- compound: "COc1ccc(C2CC(c3ccc(Cl)cc3)Nc3nc(NC(=O)c4ccco4)nn32)cc1 (centres undefined)"
  inhibition / %: 4
- compound: "Cc1ccc(NC(=O)c2ccc(NS(=O)(=O)c3c(C)noc3C)cc2)cc1C"
  inhibition / %: 0
- compound: "COc1cccc(NC(=O)CSc2nnc(Cc3cccn3C)n2-c2ccc(F)cc2)c1"
  inhibition / %: 4
- compound: "C=CCn1c(=O)/c(=C/c2ccc(O)cc2)s/c1=C(/C#N)c1nnc2n1CCCCC2"
  inhibition / %: 0

Q: Any idea what inhibition was measured for CCCCSc1nc(CCC)cc(=O)[nH]1 ?
Ans: 0

Q: Request: Cc1cc(=O)oc2cc(OCC#N)ccc12
Ans: 0

Q: Record: Cc1nnc(SCC(=O)N2CCC(C(N)=O)CC2)s1
Ans: 0

Q: CCNC(=O)N(C(=O)NCC)n1c(C)nnc1C , same question.
Ans: 0

Q: Next up: O=C(NC1=NCCS1)NC12CC3CC(CC(C3)C1)C2
Ans: 2

Q: Further, for COc1ccccc1S(=O)(=O)Cc1ccc(C(=O)N2CCN(c3ccccn3)CC2)o1 ?
Ans: 0

Q: Cool, now O=C(Nn1cnnc1)C1Cc2ccccc2CN1S(=O)(=O)c1ccc(F)cc1 (centres undefined)
Ans: 0

Q: Similarly, COC(=O)CNC(=O)COC(=O)c1cc(Cl)cc(Cl)c1N ?
Ans: 0

====

subject-of-test: Pantothenate synthetase (Mycobacterium tuberculosis (strain ATCC 25618 / H37Rv)) (UniProt P9WIL5)
assay-summary: Coupled enzyme confirmation of inhibitors against recombinant Mtb PanC (AID 375);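 note: 0% = full reaction with vehicle and 100% = no enzyme background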
assay-context: coupled enzyme assay; at 10 µM, hits give high values
test-readout: inhibition (%)
Just the number please, in %, no unit attached.

Past entries and their recorded results:
- molecule: "Cc1noc(C)c1S(=O)(=O)N1CCN(Cc2ccc3c(c2)OCO3)CC1"
  result-number: 0
- molecule: "CCCc1nc2ccccc2c2nc(N)nn12"
  result-number: 5
- molecule: "CCOc1ccc(N(C(C)C(=O)NC2CCCCCC2)S(C)(=O)=O)cc1 (centres undefined)"
  result-number: 1
- molecule: "CC(=O)CC(=O)Nc1ccccc1NC(C)=O"
  result-number: 3
- molecule: "c1ccc(CNc2ccc3c(c2)ncn3C2CCCCC2)nc1"
  result-number: 0

Q: # lookup: inhibition of CC(C)(C)n1nnnc1CN(Cc1ccco1)Cc1cc2cc3c(cc2[nH]c1=O)OCO3
Ans: 0

Q: Now the molecule Cn1nnnc1SCC(=O)N1CCN(c2cccc(Cl)c2)CC1
Ans: 2

Q: Check COc1ccc(Cl)cc1S(=O)(=O)N1CCN(c2ccc(F)cc2)CC1 too.
Ans: 0

Q: Next: Cc1cc(=O)n(C)c(=O)n1CCCNc1ccccc1
Ans: 2

Q: Then what about the molecule COc1ccc(C(=O)N2CCOCC2)cc1Br ?
Ans: 6

Q: Moving on to the next molecule: O=C(c1ccc(CS(=O)(=O)c2ccccc2)o1)N1CCC2(CC1)OCCO2
Ans: 0

Q: CCC(C)c1ccc(NC(=O)c2cccnc2)cc1 (centres undefined) , same question.
Ans: 9

Q: For CCOC(=O)c1[nH]c(CSc2nnc(-c3ccncc3)n2CCOC)c(C(=O)OCC)c1C then?
Ans: 3

====

Entries annotated with measured inhibition
subject-of-test: Pantothenate synthetase (Mycobacterium tuberculosis (strain ATCC 25618 / H37Rv)) (UniProt P9WIL5)
assay-summary: Coupled enzyme confirmation of inhibitors against recombinant Mtb PanC (AID 375);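 note: 0% = full reaction with vehicle and 100% = no enzyme background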
assay-context: coupled enzyme assay; at 10 µM, hits give high values
// note: answer is a bare numeric in %

A selection of reference data follows.
- molecule: "CCOC(=O)C(NC(=O)Nc1ccccc1)(OCC)C(F)(F)F (stereo not given)"
  display-unit: "%"
  inhibition: 0
- molecule: "O=C(Nc1ccccc1)N(Cc1cccnc1)Cc1ccco1"
  display-unit: "%"
  inhibition: 0
- molecule: "COc1cccc(NC(=O)C2C3C=CC4(O3)C2C(=O)N(C(C)C)C4C(=O)NC2CCCCC2C)c1 (stereo not given)"
  display-unit: "%"
  inhibition: 2
- molecule: "O=C(c1cnn2c(C(F)F)cc(C3CC3)nc12)N1CCOCC1"
  display-unit: "%"
  inhibition: 1

// switching to the query molecule
Q: # lookup: inhibition of O=C(Nc1nnc(C2CCCC2)s1)C1CCN(S(=O)(=O)c2ccc(Cl)cc2)CC1
Ans: 0

// provenance: PubChem BioAssay
